biological target: UniProt:P00760
Sequence (P00760 24-246): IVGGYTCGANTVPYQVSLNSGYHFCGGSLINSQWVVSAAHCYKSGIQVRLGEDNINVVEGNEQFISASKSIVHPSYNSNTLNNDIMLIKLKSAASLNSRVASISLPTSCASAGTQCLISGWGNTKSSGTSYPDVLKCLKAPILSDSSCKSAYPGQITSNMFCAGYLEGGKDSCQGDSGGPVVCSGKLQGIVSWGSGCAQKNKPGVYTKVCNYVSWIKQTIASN
Cut-off 20 nM on IC50: below means true (1), at or above means false (0).

Answered cases to consult:
[
  {
    "COMPOUND": "N=C(N)Nc1ccc(C(=O)Oc2ccc(C(=O)N3CCN(CC(=O)N4CCCC4)CC3)cc2)cc1",
    "ASSAY_TARGET": "UniProt:P00760",
    "ASSIGNED_CLASS": "true (1)"
  },
  {
    "COMPOUND": "N=C(N)Nc1ccc(C(=O)Oc2ccc(C(=O)N3CCNCC3)cc2)cc1",
    "ASSAY_TARGET": "UniProt:P00760",
    "ASSIGNED_CLASS": "false (0)"
  },
  {
    "COMPOUND": "N=C(N)Nc1ccc(C(=O)Oc2ccc(C(=O)N3CCN(CC(=O)N4CCOCC4)CC3)cc2)cc1",
    "ASSAY_TARGET": "UniProt:P00760",
    "ASSIGNED_CLASS": "true (1)"
  },
  {
    "COMPOUND": "CC(C)NC(=O)CN1CCN(C(=O)c2ccc(OC(=O)c3ccc(NC(=N)N)cc3)cc2)CC1",
    "ASSAY_TARGET": "UniProt:P00760",
    "ASSIGNED_CLASS": "true (1)"
  },
  {
    "COMPOUND": "N=C(N)Nc1ccc(C(=O)Oc2ccc(C(=O)N3CCN(CC(=O)N4CCCCC4)CC3)cc2)cc1",
    "ASSAY_TARGET": "UniProt:P00760",
    "ASSIGNED_CLASS": "true (1)"
  }
]

Determine if CCOC(=O)c1ccc(OC(=O)CCCCCNC(=N)N)cc1 [Reference compound B, reference compound] shows IC50 strictly lower than 20 nM. false (0)

Cool, now `COc1cc(C(=O)N2CCN(C(C)C)CC2)cc(OC)c1OC(=O)c1ccc(NC(=N)N)cc1` false (0)

###

Let's go through some recorded IC50 values for thrombin (Homo sapiens, UniProt P00734) together.

Example entries begin here.
[
  {
    "SMILES_INPUT": "N=C(N)Nc1ccc(C(=O)Oc2ccc(C(=O)N3CCN(CC(N)=O)CC3)cc2)cc1",
    "OBSERVED_VALUE": "200 nM"
  },
  {
    "SMILES_INPUT": "CCOC(=O)CN1CCN(C(=O)c2ccc(OC(=O)c3ccc(NC(=N)N)cc3)cc2)CC1",
    "OBSERVED_VALUE": "400 nM"
  },
  {
    "SMILES_INPUT": "N=C(N)Nc1ccc(C(=O)Oc2ccc(C(=O)N3CCN(CC(=O)N4CCCC4)CC3)cc2)cc1",
    "OBSERVED_VALUE": "400 nM"
  },
  {
    "SMILES_INPUT": "CC(C)NC(=O)CN1CCN(C(=O)c2ccc(OC(=O)c3ccc(NC(=N)N)cc3)cc2)CC1",
    "OBSERVED_VALUE": "400 nM"
  }
]

Now turn to the next molecule.
Look at this molecule and give its reported IC50. `N=C(N)Nc1ccc(C(=O)Oc2ccc(C(=O)N3CCN(CC(=O)N4CCOCC4)CC3)cc2)cc1` 400 nM

###

assay: Solubility; format: physicochemical; conditions: pH 3.57
READOUT_KIND: solubility

Look at this compound and give its reported solubility. N=C(N)Nc1ccc(C(=O)Oc2ccc(C(=O)N3CCN(CC(N)=O)CC3)cc2)cc1 [Example 2] > 100 mg/mL

###

Item-by-item account of Blood coagulation time (r+k value)
Test system: rat's blood
Assay: Anticoagulant activity (blood coagulation time by thrombelastograph)
Conditions: compound 1×10^-4 M, thrombelastogram
Procedure: A compound to be tested was dissolved into a physiological saline solution so as to have the final concentration of 1×10^-4 M and then cooled down by ice. A 0.05 ml of the thus prepared solution was added with 0.5 ml of rat's blood, followed by subjecting the obtained solution to a thrombelastograph (manufactured by Hellige Company). The blood coagulation time (r+k value) was determined by the obtained thrombelastogram.
Numeric answer only, unit min assumed.

[
  {
    "MOLECULE": "N=C(N)Nc1ccc(C(=O)Oc2ccc(C(=O)N3CCCN(CC(N)=O)CC3)cc2)cc1",
    "Blood coagulation time (r+k value) [min]": 32
  },
  {
    "MOLECULE": "N=C(N)Nc1ccc(C(=O)Oc2ccc(C(=O)N3CCN(CCNC(=O)OCc4ccccc4)CC3)cc2)cc1",
    "Blood coagulation time (r+k value) [min]": 18.8
  },
  {
    "MOLECULE": "N=C(N)Nc1ccc(C(=O)Oc2ccc(C(=O)N3CCN(CC(=O)N4CCCC4)CC3)cc2)cc1",
    "Blood coagulation time (r+k value) [min]": 9.7
  },
  {
    "MOLECULE": "CN1CCN(C(=O)c2ccc(OC(=O)c3ccc(NC(=N)N)cc3)cc2)CC1",
    "Blood coagulation time (r+k value) [min]": 16.5
  },
  {
    "MOLECULE": "CCOC(=O)CN1CCN(C(=O)c2ccc(OC(=O)c3ccc(NC(=N)N)cc3)cc2)CC1",
    "Blood coagulation time (r+k value) [min]": 10
  },
  {
    "MOLECULE": "N=C(N)Nc1ccc(C(=O)Oc2ccc(C(=O)N3CCN(CC(=O)N4CCOCC4)CC3)cc2)cc1",
    "Blood coagulation time (r+k value) [min]": 15.3
  },
  {
    "MOLECULE": "CC(C(=O)NCCN(C)C)N1CCN(C(=O)c2ccc(OC(=O)c3ccc(NC(=N)N)cc3)cc2)CC1 (stereo not shown)",
    "Blood coagulation time (r+k value) [min]": 20.5
  },
  {
    "MOLECULE": "N=C(N)Nc1ccc(C(=O)Oc2ccc(C(=O)N3CCN(CC(=O)O)CC3)cc2)cc1",
    "Blood coagulation time (r+k value) [min]": 19.2
  },
  {
    "MOLECULE": "CC(C)NC(=O)CN1CCN(C(=O)c2ccc(OC(=O)c3ccc(NC(=N)N)cc3)cc2)CC1",
    "Blood coagulation time (r+k value) [min]": 18.5
  }
]

Look at this molecule and give its reported Blood coagulation time (r+k value). `N=C(N)Nc1ccc(C(=O)Oc2ccc(C(=O)N3CCN(CC(N)=O)CC3)cc2)cc1` 26.7
